Below is a list of entries, each paired with its recorded PBM binding z-score value.
- Test system: PPARg:RXRa 30nM:10nM, anti-RXR (NR concentration 30 nM, RXRa partner concentration 10 nM)
- method-summary: PBM binding z-score (relative to random genomic background probes); higher = stronger binding; sequences stand for … in GC…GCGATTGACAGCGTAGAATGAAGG

Entry `GCAGTCAGGTGAAACGCAGGTAACTCAGGGTGGC` : PBM binding z-score on PPARg:RXRa 30nM:10nM, anti-RXR (NR concentration 30 nM, RXRa partner concentration 10 nM) = -0.525

Entry `CCTACTGGGCCATCAGGGCATTGATATCAACGTT` : PBM binding z-score on PPARg:RXRa 30nM:10nM, anti-RXR (NR concentration 30 nM, RXRa partner concentration 10 nM) = -0.00697

Entry `CCGAGTAGGTTATGGGGCTTTCAGGCAACGGTGA` : PBM binding z-score on PPARg:RXRa 30nM:10nM, anti-RXR (NR concentration 30 nM, RXRa partner concentration 10 nM) = 0.331

###

Below is a list of entries, each paired with its recorded PBM binding z-score value.
- System: RXRa homodimer (NR concentration 180 nM)
- method-summary: PBM binding z-score (relative to random genomic background probes); higher = stronger binding; sequences stand for … in GC…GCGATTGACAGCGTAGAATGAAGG

INSERT INTO assay_data (sequence_text, measure_name, test_result) VALUES
  ('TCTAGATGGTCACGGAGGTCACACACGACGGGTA', 'PBM binding z-score', 5.34),
  ('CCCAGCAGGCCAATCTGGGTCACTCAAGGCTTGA', 'PBM binding z-score', 0.923),
  ('CCTACTGGGCCATTTAGAGGTCATTGATCATATG', 'PBM binding z-score', 3.21),
  ('CCTAGTTGGTCAGGAGCTCACACACCGGATATGA', 'PBM binding z-score', 0.0648),
  ('AGAATGAGGTTATACGTCGATCAGGGAAGAAAGT', 'PBM binding z-score', 2.07),
  ('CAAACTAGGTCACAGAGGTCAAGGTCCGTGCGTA', 'PBM binding z-score', 7.09),
  ('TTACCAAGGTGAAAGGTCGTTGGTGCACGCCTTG', 'PBM binding z-score', 6.07),
  ('TTACCAAGGTGAAGGTCGATGATCCCTCTGTAGA', 'PBM binding z-score', 1.4);

`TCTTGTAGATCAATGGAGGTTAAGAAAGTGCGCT` yielded PBM binding z-score of 0.919

`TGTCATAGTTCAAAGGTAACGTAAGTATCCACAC` yielded PBM binding z-score of 5.18

`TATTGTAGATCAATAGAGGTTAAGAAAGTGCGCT` yielded PBM binding z-score of 1.36

`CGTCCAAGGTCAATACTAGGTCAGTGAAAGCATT` yielded PBM binding z-score of 4.84

`TCTCGGAGGACACGAGGGTCAGAGCTTTCCAGAG` yielded PBM binding z-score of 1.33

`ATATGTAAGTTAGCTGGGGTCATTCAGACTAGGC` yielded PBM binding z-score of 5.13

`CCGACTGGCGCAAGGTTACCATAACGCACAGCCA` yielded PBM binding z-score of 0.892

`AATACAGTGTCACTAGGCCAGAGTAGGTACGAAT` yielded PBM binding z-score of 0.185

`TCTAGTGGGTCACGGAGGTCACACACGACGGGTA` yielded PBM binding z-score of 7.69

`ATCTGTAGGTAAAAGTTCAGTGAATCCCGAGGAT` yielded PBM binding z-score of 1.65

`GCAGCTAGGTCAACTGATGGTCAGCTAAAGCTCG` yielded PBM binding z-score of 2.52

###

- Test system: PPARg DBDmut:RXRa IVT, anti-PPARg (DBD mutation: PPARg1 K132A/R137A, NR concentration 270 nM, RXRa partner concentration 90 nM)
- method-summary: PBM binding z-score (relative to random genomic background probes); higher = stronger binding; sequences stand for … in GC…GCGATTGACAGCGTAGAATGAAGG
measure-name: PBM binding z-score
I only need the number, thanks.

A selection of reference data follows.
INSERT INTO measurements (sequence_text, measure_name, test_result) VALUES
  ('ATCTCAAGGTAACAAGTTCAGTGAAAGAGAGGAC', 'PBM binding z-score', 1.3),
  ('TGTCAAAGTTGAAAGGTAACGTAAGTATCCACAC', 'PBM binding z-score', 0.664),
  ('CGTCCAAGGTCAGCAGGTAAGTGAAAGCGACGTG', 'PBM binding z-score', 0.325);

`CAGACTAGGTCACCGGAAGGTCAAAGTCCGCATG` yielded PBM binding z-score of 0.753

`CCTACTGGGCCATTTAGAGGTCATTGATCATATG` yielded PBM binding z-score of 0.156

`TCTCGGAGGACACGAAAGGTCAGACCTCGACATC` yielded PBM binding z-score of 0.0109

`CCTTACGGGTCACTGACAAGTTATAGCATTTGGA` yielded PBM binding z-score of 0.661

`CCTCGGAGGACAACAGGAGGTCAGAGCTGCCAGA` yielded PBM binding z-score of -0.994

`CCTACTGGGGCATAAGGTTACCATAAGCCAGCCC` yielded PBM binding z-score of 0.0293

`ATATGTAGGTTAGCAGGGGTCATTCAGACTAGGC` yielded PBM binding z-score of 3.05

`CAGCCTAGGTCAGGTCCAGTATAGGAGGAACGTT` yielded PBM binding z-score of -0.384

`CCTACTGGGCCATTCAGAGGTCATTGCTCATATG` yielded PBM binding z-score of -0.1

`TCAGATAGGTAAACAGGTGAAAGTCCGTAAGTTA` yielded PBM binding z-score of 0.778

###

- System: PPARg:RXRa 270nM:90nM, anti-RXR (NR concentration 270 nM, RXRa partner concentration 90 nM)
- method-summary: PBM binding z-score (relative to random genomic background probes); higher = stronger binding; sequences stand for … in GC…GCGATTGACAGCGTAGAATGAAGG
measure-name: PBM binding z-score
I only need the number, thanks.

A selection of reference data follows.
INSERT INTO assay_data (sequence_text, test_result) VALUES
  ('CCTAGTTCGTCAGGAGGTCACACACCGGATATGA', 3.03),
  ('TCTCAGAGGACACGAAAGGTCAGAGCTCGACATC', 3.01);

Turning now to a further sequence:
`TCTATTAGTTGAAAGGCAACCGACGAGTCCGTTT` yielded PBM binding z-score of 2.96

###

- Tested on: RARg:RXRa (NR concentration 270 nM, RXRa partner concentration 90 nM)
- method-summary: PBM binding z-score (relative to random genomic background probes); higher = stronger binding; sequences stand for … in GC…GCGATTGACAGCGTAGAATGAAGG
Below is a list of entries, each paired with its recorded PBM binding z-score value.
I only need the number, thanks.

A selection of reference data follows.
INSERT INTO assay_data (sequence_text, experimental_target, test_result) VALUES
  ('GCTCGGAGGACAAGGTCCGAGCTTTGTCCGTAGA', 'RARg:RXRa (NR concentration 270 nM, RXRa partner concentration 90 nM)', -0.185),
  ('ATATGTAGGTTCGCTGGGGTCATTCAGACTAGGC', 'RARg:RXRa (NR concentration 270 nM, RXRa partner concentration 90 nM)', 4.07),
  ('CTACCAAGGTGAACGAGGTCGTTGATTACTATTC', 'RARg:RXRa (NR concentration 270 nM, RXRa partner concentration 90 nM)', 2.13),
  ('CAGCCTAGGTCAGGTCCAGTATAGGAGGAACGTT', 'RARg:RXRa (NR concentration 270 nM, RXRa partner concentration 90 nM)', 2.25);

`CCTGCTAGGTCAATGGTAAGCTAAAGCAGCTCGC` yielded PBM binding z-score of 3.52

`ACAAGTTGGTCAGCTGAGGTCACACACAATTCGG` yielded PBM binding z-score of 4.2

`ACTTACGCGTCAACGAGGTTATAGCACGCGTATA` yielded PBM binding z-score of 0.413

`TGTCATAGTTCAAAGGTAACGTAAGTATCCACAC` yielded PBM binding z-score of 4.15

`GCGACTGCGGCAAAGCAGGTTACCATAAGGTTGG` yielded PBM binding z-score of -0.183

`CCTTACGGGTCACGAGGTTAAAGCACGACGAGCG` yielded PBM binding z-score of 6.28

`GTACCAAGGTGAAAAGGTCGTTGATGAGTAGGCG` yielded PBM binding z-score of 4.66

`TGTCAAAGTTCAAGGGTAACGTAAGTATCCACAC` yielded PBM binding z-score of 5.81

Origin of the recorded values: the supplement of paper PMC6555819
